- experiment notes: NCI Yeast Anticancer Drug Screen. Data for the mgt1 strain (AID 153)
- measurement setup: S. cerevisiae mgt1 mutant growth inhibition; at 3.7 µM; stronger effect = higher value
Compounds without any hit were thinned out: in the full panel of roughly 79,000, 15% have a hit.
// reported growth inhibition per item
# value in %; strip the unit string

compound	measurement label	reported result
O=[N+]([O-])C(=C(Sc1ccccc1)Sc1ccccc1)C(Cl)=C(Cl)Cl	growth inhibition	17
CC(C)/C(Cl)=N\OC(=O)Nc1ccc(F)cc1	growth inhibition	0
CCc1ncnc2cc(OCC3CO3)c(OC)cc12 (stereo unspecified)	growth inhibition	-8
O=C1C=CC(=Nc2ccc3c(c2)Cc2cc(NC(=O)C(F)(F)F)ccc2-3)O1	growth inhibition	5
O=Cc1cccc2ccc3ccccc3c12	growth inhibition	-4

[in] Can you look up the measured growth inhibition of O=C1c2cc([N+](=O)[O-])ccc2-c2cccc(F)c21 for me?
[out] -5

[in] growth inhibition for C[C@H](CCC(=O)NN)[C@H]1CC[C@H]2[C@@H]3CC[C@@H]4C[C@H](O)CC[C@]4(C)[C@H]3CC[C@]12C ?
[out] -1

[in] Quick one: growth inhibition for O=C(O)c1cccc(-c2c3ccc(=O)cc-3oc3cc(O)ccc23)c1 ?
[out] 12

[in] Requested read-out: growth inhibition. Entry: CC(C)c1ccccc1NC(=O)/C(Cl)=C(\Cl)C(=O)O
[out] 3

[in] // lookup growth inhibition for COc1cc2c(cc1[N+](=O)[O-])C(=O)C(Br)(Br)CCC2
[out] 73

[in] Name the reported growth inhibition value associated with the compound CC/C(=C(\c1ccccc1)c1ccc(OCCN(C)C)cc1)c1ccccc1
[out] 8
